biological target: humanized development candidate monoclonal antibody IgG4 (hIgG4); experiment: Gyrolab, mAb as capture, hIgG4 8 ng/ml
Parameter: Av. Resp.. Scope: all listed entries.
A bare number is all that is needed in reply.

BINDER: rabbit anti-human IgG monoclonal antibody clone 9E6 (antibody, V domains shown) VH: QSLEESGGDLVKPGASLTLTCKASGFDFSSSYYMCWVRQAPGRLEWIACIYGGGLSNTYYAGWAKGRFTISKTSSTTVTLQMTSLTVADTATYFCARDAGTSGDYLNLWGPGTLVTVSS VL: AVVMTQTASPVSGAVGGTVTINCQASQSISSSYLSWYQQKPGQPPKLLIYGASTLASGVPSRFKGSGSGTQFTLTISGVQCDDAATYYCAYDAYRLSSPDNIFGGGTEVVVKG
Av. Resp.: 8.6

# ---- query binder ----
Task: What value of measured Av. Resp. is listed for rabbit anti-human IgG monoclonal antibody clone 16F5 (antibody, V domains shown) VH: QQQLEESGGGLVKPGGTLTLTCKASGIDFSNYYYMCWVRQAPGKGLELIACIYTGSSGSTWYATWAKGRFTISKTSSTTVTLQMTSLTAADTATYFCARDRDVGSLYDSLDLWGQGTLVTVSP VL: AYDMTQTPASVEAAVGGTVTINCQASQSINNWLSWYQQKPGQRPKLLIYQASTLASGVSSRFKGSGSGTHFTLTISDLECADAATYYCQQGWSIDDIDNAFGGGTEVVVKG ?
Result: 18.5
